Give measured MIC for each item. Keep answers brief.
Test system: S. agalactiae GC 4564
Test Summary: MIC, broth microdilution
Condition Description: Streptococcus agalactiae, GC4564, read-out: MINIMAL INHIBITORY CONCENTRATION MIC, Mouse Serum
Numbers only, in µg/mL.

COC(=O)N(CC(=O)Nc1cc(N(C)C)c2c(c1O)C(=O)C1=C(O)[C@]3(O)C(=O)C(C(N)=O)=C(O)[C@@H](N(C)C)[C@@H]3C[C@@H]1C2)C(C)(C)C [Example 60] :: 4
CCC(=O)OCOC(=O)N(CC(=O)Nc1cc(N(C)C)c2c(c1O)C(=O)C1=C(O)[C@]3(O)C(=O)C(C(N)=O)=C(O)[C@@H](N(C)C)[C@@H]3C[C@@H]1C2)C(C)(C)C [Example 49] :: 0.12
CN(C)c1cc(NC(=O)CN(C(=O)OCOC(=O)C2CCCCC2)C(C)(C)C)c(O)c2c1C[C@H]1C[C@H]3[C@H](N(C)C)C(O)=C(C(N)=O)C(=O)[C@@]3(O)C(O)=C1C2=O [Example 50] :: 0.25

Now for another entry.
-- ask API: value(readout= MIC, system= S. agalactiae GC 4564, query= CC(C)COC(=O)N(CC(=O)Nc1cc(N(C)C)c2c(c1O)C(=O)C1=C(O)[C@]3(O)C(=O)C(C(N)=O)=C(O)[C@@H](N(C)C)[C@@H]3C[C@@H]1C2)C(C)(C)C [Example 59] )
-- reply 8

---

Tested on: Staph.
Test Summary: Range of MIC for Staph. strains, including MRSA
Condition Description: Staphylococcus aureus, read-out: Minimum inhibitory concentration (MIC), Staph (Water)
Quantity Name: MIC

CN(C)c1cc(NC(=O)CN(C(=O)OCOC(=O)CC(C)(C)C)C(C)(C)C)c(O)c2c1C[C@H]1C[C@H]3[C@H](N(C)C)C(O)=C(C(N)=O)C(=O)[C@@]3(O)C(O)=C1C2=O [Example 42] :: 4 to 8 µg/mL
CN(C)c1cc(NC(=O)CN(C(=O)OCOC(=O)C2CCCC2)C(C)(C)C)c(O)c2c1C[C@H]1C[C@H]3[C@H](N(C)C)C(O)=C(C(N)=O)C(=O)[C@@]3(O)C(O)=C1C2=O [Example 46] :: 0.25 to 2 µg/mL
CN(C)c1cc(NC(=O)CN(C(=O)OCOC(=O)c2ccc(F)cc2)C(C)(C)C)c(O)c2c1C[C@H]1C[C@H]3[C@H](N(C)C)C(O)=C(C(N)=O)C(=O)[C@@]3(O)C(O)=C1C2=O [Example 52] :: 2 to 4 µg/mL
CN(C)c1cc(NC(=O)CN(C(=O)OCOC(=O)c2ccc(C(F)(F)F)cc2)C(C)(C)C)c(O)c2c1C[C@H]1C[C@H]3[C@H](N(C)C)C(O)=C(C(N)=O)C(=O)[C@@]3(O)C(O)=C1C2=O [Example 55] :: 2 to 8 µg/mL
CCC(=O)OCOC(=O)N(CC(=O)Nc1cc(N(C)C)c2c(c1O)C(=O)C1=C(O)[C@]3(O)C(=O)C(C(N)=O)=C(O)[C@@H](N(C)C)[C@@H]3C[C@@H]1C2)C(C)(C)C [Example 49] :: 0.12 to 2 µg/mL
CCCCCCC(=O)OCOC(=O)N(CCC)CC(=O)Nc1cc(N(C)C)c2c(c1O)C(=O)C1=C(O)[C@]3(O)C(=O)C(C(N)=O)=C(O)[C@@H](N(C)C)[C@@H]3C[C@@H]1C2 [Example 19] :: 0.25 to 4 µg/mL

-- ask Query: MIC; subject: CCC(C)(C)C(=O)OCOC(=O)N(CC(=O)Nc1cc(N(C)C)c2c(c1O)C(=O)C1=C(O)[C@]3(O)C(=O)C(C(N)=O)=C(O)[C@@H](N(C)C)[C@@H]3C[C@@H]1C2)C(C)(C)C [Example 44]
-- reply 2 to 4 µg/mL
